# System: E. coli TESEC Mtb Alr
# assay-summary: growth (OD600 after 10 h); higher = more growth (less inhibition)
# stated-conditions: arabinose 100 nM; compound 0.1 mM; raw OD600 reference: median of DMSO wells 0.413, cell-free background 0.052
Counter-ions that a name gives are not always drawn.
recorded-endpoint: growth
# print the numeric value only

molecule="NC[C@H]1O[C@H](O[C@H]2[C@H](O)[C@@H](O[C@H]3O[C@H](CO)[C@@H](O)[C@H](N)[C@H]3O)[C@H](N)C[C@@H]2N)[C@H](N)C[C@@H]1O [Tobramycin]" obs_value=0.0513
molecule="O=C(O)c1ccccc1Nc1cccc(C(F)(F)F)c1 [Flufenamic acid]" obs_value=0.0904
molecule="C[C@@H](O)[C@H]1C(=O)N2C(C(=O)O)=C(SCCNC=N)C[C@H]12 [Imipenem]" obs_value=0.165
molecule="CC(=O)N(O)CCCCCNC(=O)CCC(=O)N(O)CCCCCNC(=O)CCC(=O)N(O)CCCCCN [Deferoxamine mesylate]" obs_value=0.113
molecule="COc1ccc(CCN(C)CCCC(C#N)(c2ccc(OC)c(OC)c2)C(C)C)cc1OC (stereo not drawn) [Verapamil hydrochloride]" obs_value=0.409

Lookup: Bench note: what growth did Cc1onc(-c2ccccc2Cl)c1C(=O)N[C@@H]1C(=O)N2[C@@H]1SC(C)(C)[C@@H]2C(=O)O [Cloxacillin sodium salt] show?
Found: 0.417

Lookup: Bench note: what growth did CC1CNc2c(cccc2S(=O)(=O)N[C@@H](CCCNC(=N)N)C(=O)N2CC[C@@H](C)C[C@@H]2C(=O)O)C1 (stereo partly drawn) [Argatroban] show?
Found: 0.404

Lookup: Bench note: what growth did NCCNCCNCCNCCN [Tetraethylenepentamine pentahydrochloride] show?
Found: 0.414

---

growth values by entry
# System: E. coli TESEC Mtb Alr
# assay-summary: growth (OD600 after 10 h); higher = more growth (less inhibition)
# stated-conditions: arabinose 10000000 nM; compound 0.1 mM; raw OD600 reference: median of DMSO wells 0.146, cell-free background 0.041
Structures can show the parent of a compound that is named as a salt.
# print the numeric value only

// below: answered compounds
compound="NCCCC[C@H](N[C@@H](CCc1ccccc1)C(=O)O)C(=O)N1CCC[C@H]1C(=O)O [Lisinopril]" obs_value=0.159
compound="COc1ccc2c(c1)C(=O)N(CCc1ccc(S(=O)(=O)NC(=O)NC3CCCCC3)cc1)C(=O)C2(C)C [Gliquidone]" obs_value=0.119
compound="COc1ccc(CN2CCN(C(c3ccc(F)cc3)c3ccc(F)cc3)CC2)c(OC)c1OC [Lomerizine hydrochloride]" obs_value=0.0717
compound="Cn1c(=O)c2c(ncn2C)n(C)c1=O [Caffeine]" obs_value=0.14
compound="COc1ccc(C(=O)NCc2ccc(OCCN(C)C)cc2)cc1OC [Itopride]" obs_value=0.159

Lookup: Lab request: please report growth under test system E. coli TESEC Mtb Alr for Fc1ccc([C@@H]2CCNC[C@H]2COc2ccc3c(c2)OCO3)cc1 [Paroxetine Hydrochloride]
Found: 0.0552

Lookup: Lab request: please report growth under test system E. coli TESEC Mtb Alr for C[C@H]1C[C@@H]2[C@H]([C@@H](O)C[C@@]3(C)[C@H]2CC[C@]3(O)C(=O)CO)[C@@]2(C)C=CC(=O)C=C12 [Methylprednisolone, 6-alpha]
Found: 0.134

Lookup: Lab request: please report growth under test system E. coli TESEC Mtb Alr for C[C@]12CC[C@@H]3c4ccc(O)cc4CC[C@H]3[C@@H]1CC[C@@H]2O [Estradiol-17 beta]
Found: 0.141

Lookup: Lab request: please report growth under test system E. coli TESEC Mtb Alr for Nc1ccc(S(=O)(=O)Nc2ncccn2)cc1 [Sulfadiazine]
Found: 0.146
